Data provenance is patent US9615577B2.

# System: Abutilon theophasti Medik. (ABUTH)
# Test description: Test 1A glasshouse assay for herbicidal activity, post-emergence
# Format: in vivo
# Conditions used: 312 h, 250 g/ha, evaluated after 13 days, read-out: percentage phytotoxicity ABUTH
Observed property: pest or weed control at 250 g/ha (%)
Could you give me the number in %? Just the number is fine.

Solved cases (4 shown):
- Compound: "C#Cc1cc(Cl)c(C2C(=O)CC3(CCOCC3)CC2=O)c(OC)c1"
  Measured value: 60
- Compound: "CC#Cc1cc(C)c(C2C(=O)C3CCC(C3)C2=O)c(C)c1 (stereo not drawn)"
  Measured value: 60
- Compound: "CC#Cc1cc(C)c(C2=C(OS(C)(=O)=O)CC(CC3CCOCC3)CC2=O)c(C)c1 (stereo not drawn)"
  Measured value: 0
- Compound: "C#Cc1cc(Cl)c(C2C(=O)CCCC2=O)c(OC)c1"
  Measured value: 0

State its pest or weed control at 250 g/ha for this compound: CC#Cc1cc(C)c(C2C(=O)CC(c3ccccn3)CC2=O)c(C)c1 (stereo not drawn) 80

Specify pest or weed control at 250 g/ha for C#Cc1cc(Cl)c(C2C(=O)C3CCC(C3)C2=O)c(OC)c1 (stereo not drawn) and stop. 0

Please look at this compound and report its pest or weed control at 250 g/ha: CC#Cc1cc(C)c(C2=C(OC(C)=O)CC(c3ccccn3)CC2=O)c(C)c1 (stereo not drawn) 80

State its pest or weed control at 250 g/ha for this compound: CC#Cc1cc(Cl)c(C2C(=O)C3CCC(C3)C2=O)c(OCC)c1 (stereo not drawn) 60

Return reported pest or weed control at 250 g/ha. Input compound: CC#Cc1cc(C)c(C2=C(OC(=O)C(C)(C)C)C3CCC(C3)C2=O)c(C)c1 (stereo not drawn) 70

###

# Tested on: Alopecurus myosuroides (ALOMY)
# Test description: Test 1A glasshouse assay for herbicidal activity, post-emergence
# Assay type: in vivo
# Conditions used: 312 h, 250 g/ha, evaluated after 13 days, read-out: percentage phytotoxicity ALOMY
# pest or weed control at 250 g/ha listing for each entry below
Write the answer as a number in %, unit excluded.

- Compound: "CC#Cc1cc(C)c(C2C(=O)CC(CC3CCOCC3)CC2=O)c(C)c1 (stereo not drawn)"
  Assay system: "Alopecurus myosuroides (ALOMY)"
  Measured value: 100

Return reported pest or weed control at 250 g/ha. Input compound: CC#Cc1cc(C)c(C2C(=O)C3CCC(C3)C2=O)c(OC)c1 (stereo not drawn) 100

// fetch pest or weed control at 250 g/ha given entry CC#Cc1cc(C)c(C2=C(OC(C)=O)CC(c3ccccn3)CC2=O)c(C)c1 (stereo not drawn) 100

Output pest or weed control at 250 g/ha of CC#Cc1cc(C)c(C2=C(OS(C)(=O)=O)CC(CC3CCOCC3)CC2=O)c(C)c1 (stereo not drawn) 80

###

# System: Amaranthus retroflexus (AMARE)
# Test description: Test 1A glasshouse assay for herbicidal activity, post-emergence
# Format: in vivo
# Conditions used: 312 h, 30 g/ha, evaluated after 13 days, read-out: percentage phytotoxicity AMARE
pest or weed control at 30 g/ha reference
The answer consists of two parts: a number and, after it, its unit.

Some entries whose results are on file:
- Compound: "CC#Cc1cc(C)c(C2=C(OC(C)=O)CC(c3ccccn3)CC2=O)c(C)c1 (centres unmarked)"
  pest or weed control at 30 g/ha: "0%"
- Compound: "C#Cc1cc(C)c(C2C(=O)CC(c3ccccn3)CC2=O)c(C)c1 (centres unmarked) [Compound X-4, reference compound]"
  pest or weed control at 30 g/ha: "0%"
- Compound: "CC#Cc1cc(Cl)c(C2C(=O)CCCC2=O)c(OC)c1"
  pest or weed control at 30 g/ha: "20%"
- Compound: "CC#Cc1cc(C)c(C2C(=O)CC(CCSC)CC2=O)c(C)c1 (centres unmarked)"
  pest or weed control at 30 g/ha: "80%"
- Compound: "CC#Cc1cc(C)c(C2=C(OC(=O)C(C)(C)C)C3CCC(C3)C2=O)c(C)c1 (centres unmarked)"
  pest or weed control at 30 g/ha: "0%"
- Compound: "CC#Cc1cc(Cl)c(C2=C(OC(=O)C(C)(C)C)C3CCC(C3)C2=O)c(OC)c1 (centres unmarked)"
  pest or weed control at 30 g/ha: "0%"
- Compound: "CC#Cc1cc(Cl)c(C2C(=O)C3CCC(C3)C2=O)c(OCC)c1 (centres unmarked)"
  pest or weed control at 30 g/ha: "30%"

Now look at this entry.
Provide pest or weed control at 30 g/ha, recorded with Amaranthus retroflexus (AMARE), of CC#Cc1cc(Cl)c(C2C(=O)CC(CCSC)CC2=O)c(OC)c1 (centres unmarked) 10%
